# Assay system: 5-hydroxytryptamine receptor 2B (Homo sapiens)
# Sequence (P41595 whole entry): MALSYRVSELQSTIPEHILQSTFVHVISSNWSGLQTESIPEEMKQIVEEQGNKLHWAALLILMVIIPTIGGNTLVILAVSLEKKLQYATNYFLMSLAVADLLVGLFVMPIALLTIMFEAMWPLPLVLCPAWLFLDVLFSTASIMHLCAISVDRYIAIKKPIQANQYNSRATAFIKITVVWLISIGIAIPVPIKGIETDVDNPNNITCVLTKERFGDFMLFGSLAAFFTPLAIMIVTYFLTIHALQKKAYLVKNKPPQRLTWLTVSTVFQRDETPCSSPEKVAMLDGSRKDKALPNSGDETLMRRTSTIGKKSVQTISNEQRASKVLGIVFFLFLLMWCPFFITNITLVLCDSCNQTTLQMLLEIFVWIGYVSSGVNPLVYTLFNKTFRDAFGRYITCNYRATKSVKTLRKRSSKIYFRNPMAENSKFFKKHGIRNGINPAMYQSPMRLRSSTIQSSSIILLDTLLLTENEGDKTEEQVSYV
# Assay comment: Antagonist activity at human 5HT2B receptor
Measured parameter: IC50

What value of IC50 has been recorded for this entry: `Cc1cc(OCCN2CCOCC2)nn1-c1ccc2ccccc2c1`
4.7 µM

----------
# Assay system: Cytochrome P450 2B6 (Homo sapiens, UniProt P20813)
# Sequence (P20813 whole entry): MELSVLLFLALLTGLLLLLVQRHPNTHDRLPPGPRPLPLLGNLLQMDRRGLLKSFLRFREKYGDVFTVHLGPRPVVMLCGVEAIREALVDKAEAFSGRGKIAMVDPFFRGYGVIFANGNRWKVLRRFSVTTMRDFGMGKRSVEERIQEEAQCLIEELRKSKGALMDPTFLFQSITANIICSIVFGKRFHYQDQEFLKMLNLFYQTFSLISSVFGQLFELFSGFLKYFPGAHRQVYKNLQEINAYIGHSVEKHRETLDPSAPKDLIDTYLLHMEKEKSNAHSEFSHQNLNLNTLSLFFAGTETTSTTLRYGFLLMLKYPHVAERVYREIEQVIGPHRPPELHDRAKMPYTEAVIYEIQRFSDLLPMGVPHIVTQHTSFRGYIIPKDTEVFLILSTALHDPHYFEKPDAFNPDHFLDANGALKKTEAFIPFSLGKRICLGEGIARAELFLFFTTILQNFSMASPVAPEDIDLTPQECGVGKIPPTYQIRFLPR
# Assay comment: Inhibition of CYP2B6 in human liver microsomes
# Type: ADME, Microsome
pIC50: −log10 of the molar value.
Measured parameter: pIC50

What value of pIC50 has been reported for the following molecule? `Cc1cc(OCCN2CCOCC2)nn1-c1ccc2ccccc2c1`
< 5.00

----------
Below, each entry is listed alongside its reported microsomal CLint at 10 µM.
# Assay comment: Intrinsic clearance in human liver microsomes assessed as per mg of protein at 10 uM
# Format: ADME, Microsome
# Test parameters: read-out: CLH
The reply should be a number in µL/min/mg, with the unit left off.

Cc1cc(SCCN2CCOCC2)nn1-c1ccc(Cl)c(Cl)c1: 37
Cc1cc(OCCN2CCN(C)CC2)nn1-c1ccc(Cl)c(Cl)c1: 3

Requested read-out: microsomal CLint at 10 µM. Entry: `Cc1cc(OCCN2C[C@@H](C)O[C@@H](C)C2)nn1-c1ccc2ccccc2c1`
25

----------
# Assay system: Cytochrome P450 2B6 (Homo sapiens)
# Sequence (P20813 whole entry): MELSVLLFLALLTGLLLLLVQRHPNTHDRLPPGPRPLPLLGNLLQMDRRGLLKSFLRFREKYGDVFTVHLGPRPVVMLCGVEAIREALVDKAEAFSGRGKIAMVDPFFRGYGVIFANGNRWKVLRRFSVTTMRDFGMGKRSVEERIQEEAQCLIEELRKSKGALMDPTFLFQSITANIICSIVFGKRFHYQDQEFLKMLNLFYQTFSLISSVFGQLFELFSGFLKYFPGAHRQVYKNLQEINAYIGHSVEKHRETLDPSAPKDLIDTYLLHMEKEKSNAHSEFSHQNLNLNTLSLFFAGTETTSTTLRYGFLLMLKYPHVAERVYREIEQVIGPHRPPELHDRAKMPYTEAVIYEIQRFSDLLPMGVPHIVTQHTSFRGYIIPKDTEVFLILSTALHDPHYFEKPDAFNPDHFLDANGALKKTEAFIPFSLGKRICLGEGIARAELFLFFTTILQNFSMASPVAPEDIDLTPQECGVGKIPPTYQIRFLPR
# Assay comment: Inhibition of human recombinant CYP2B6
# Type: ADME
Measured parameter: IC50

# value lookup — system Cytochrome P450 2B6 (Homo sapiens), readout IC50, item `Cc1cc(OCCN2CCOCC2)nn1-c1ccc2ccccc2c1`
> 10 µM

----------
# Tested on: Mus musculus
# Assay comment: Analgesic activity in CD1 mouse assessed as inhibition of capsaicin-induced mechanical hypersensitivity at 16 mg/kg, ip administered 15 mins prior to capsaicin challenge measured 30 mins post capsaicin challenge
# Format: functional
# Test parameters: route intraperitoneal
Measured parameter: inhibition in vivo at 16 mg/kg (%)
Please reply with the bare figure in % and do not write the unit itself.

As a guide, the following entries are already answered.
Cc1cc(OCCN2CCOCC2)nn1-c1ccc2ccccc2c1: 43
c1cn(C2CCCCC2)nc1OCCN1CCOCC1: 20
CC(=O)C1CCN(CCOc2ccn(-c3ccc(Cl)c(Cl)c3)n2)CC1: 73
Cc1cc(OCCN2CCN(C)CC2)nn1-c1ccc(Cl)c(Cl)c1: 27

Fill blank: measured inhibition in vivo at 16 mg/kg of the compound `Cc1cc(OCCN2CCOCC2)nn1-c1ccc(Cl)c(Cl)c1` is ____.
25

----------
# Assay system: Sigma non-opioid intracellular receptor 1 (Homo sapiens, UniProt Q99720)
# Sequence (Q99720 whole entry): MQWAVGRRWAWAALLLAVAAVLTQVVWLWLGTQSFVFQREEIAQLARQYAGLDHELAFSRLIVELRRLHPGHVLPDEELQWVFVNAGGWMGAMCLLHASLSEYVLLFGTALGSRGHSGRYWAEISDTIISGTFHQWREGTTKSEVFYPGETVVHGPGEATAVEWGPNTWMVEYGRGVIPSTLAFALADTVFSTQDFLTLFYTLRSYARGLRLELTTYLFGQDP
# Assay comment: biochemical
# Description: Displacement of [3H](+)pentazocine from human sigma 1 receptor transfected in HEK293 cell membranes after 120 mins by scintillation counter
// reported Ki for each item listed
Entry rule: numbers only, all in µM.

# annotated cases, reported Ki shown
O=S(=O)(CCN1CCOCC1)OCCOc1ccn(-c2ccc(Cl)c(Cl)c2)n1: 0.879
Cc1cc(OCCCCN2CCCCC2)nn1-c1ccc(Cl)c(Cl)c1: 0.0071
CC(=O)N1CCN(CCCCOc2cc(C)n(-c3ccc4ccccc4c3)n2)CC1: 0.296
Cc1cc(OCCCCN2CCN(C)CC2)nn1-c1ccc(Cl)c(Cl)c1: 0.0099
Cc1cc(OCCCN2CCOCC2)nn1-c1ccc(Cl)c(Cl)c1: 0.0189

Any idea what Ki came out for `Clc1ccc(-n2ccc(OCCCN3CCOCC3)n2)cc1Cl` on Sigma non-opioid intracellular receptor 1 (Homo sapiens, UniProt Q99720)?
0.0161

What value of Ki on Sigma non-opioid intracellular receptor 1 (Homo sapiens, UniProt Q99720) does `Clc1ccc(-n2ccc(OCCCN3CCCCC3)n2)cc1Cl` have?
0.0096

Recorded Ki for `Cc1c(OCCN2CCOCC2)nn(-c2ccc3ccccc3c2)c1C` with Sigma non-opioid intracellular receptor 1 (Homo sapiens, UniProt Q99720), please?
0.139

----------
# Assay comment: Displacement of [3H]di-o-tolylguanidine from sigma 2 receptor in guinea pig brain membranes after 120 mins by scintillation counter
# Type: cell membranes, Cavia porcellus, Membrane
Measured parameter: Ki (nM)
The figure you give is taken to be in nM; do not add the unit.

Sample records with Ki:
Clc1ccc(-n2ccc(OCCN3CCOCC3)n2)cc1: 357
Cc1cc(OCCNC2CCCCC2)nn1-c1ccc(Cl)c(Cl)c1: 8.8
CCN(CC)CCOc1cc(C)n(-c2ccc3ccccc3c2)n1: 589
Cc1cc(OCCCN2CCN(C)CC2)nn1-c1ccc(Cl)c(Cl)c1: 170
CC(=O)N1CCN(CCCCOc2cc(C)n(-c3ccc4ccccc4c3)n2)CC1: 324
Cc1cc(OCCN2CCCCC2)nn1-c1ccc(Cl)c(Cl)c1: 209

// below: Ki requested for another molecule
Which Ki is reported for this molecule? `CN1CCN(CCc2ccc(Cl)c(Cl)c2)CC1`
318

----------
# Assay comment: Dissociation constant, pKa of the compound
# Assay type: physicochemical
Measured parameter: pKa
Could you keep your reply to the number by itself?

Need pKa of `Cc1cc(OCCN2CCOCC2)nn1-c1ccc2ccccc2c1` , thanks.
6.5

----------
# Assay system: Cytochrome P450 2E1 (Homo sapiens)
# Sequence (P05181 whole entry): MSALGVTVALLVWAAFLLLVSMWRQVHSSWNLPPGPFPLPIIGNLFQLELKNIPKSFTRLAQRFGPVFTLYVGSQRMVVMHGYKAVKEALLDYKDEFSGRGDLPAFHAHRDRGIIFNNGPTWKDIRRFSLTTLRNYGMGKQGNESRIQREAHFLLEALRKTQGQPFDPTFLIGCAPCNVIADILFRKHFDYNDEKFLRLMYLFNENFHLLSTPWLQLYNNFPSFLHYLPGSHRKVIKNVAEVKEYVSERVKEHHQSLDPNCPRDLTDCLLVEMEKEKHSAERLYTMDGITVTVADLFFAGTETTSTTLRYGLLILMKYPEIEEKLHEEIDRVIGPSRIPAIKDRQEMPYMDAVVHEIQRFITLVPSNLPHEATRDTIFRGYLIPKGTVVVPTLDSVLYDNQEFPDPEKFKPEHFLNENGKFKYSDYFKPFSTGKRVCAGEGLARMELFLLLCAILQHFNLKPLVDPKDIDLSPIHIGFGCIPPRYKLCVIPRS
# Assay comment: Inhibition of CYP2E1 in human liver microsomes
# Assay type: ADME, Microsome
pIC50: −log10 of the molar value.
Measured parameter: pIC50

I have this compound here, `Cc1cc(OCCN2CCOCC2)nn1-c1ccc2ccccc2c1` , and I need its recorded pIC50.
< 5.00

----------
Measured Ki accompanies every entry in the list below.
# Assay comment: Displacement of [3H]di-o-tolylguanidine from sigma 2 receptor in guinea pig brain membranes after 120 mins by scintillation counter
# Type: cell membranes, Cavia porcellus, Membrane
Only the number, expressed in nM, is required.

Illustrative cases are given below, each with its answer.
CCN(CC)CCCCOc1ccn(-c2ccc(Cl)c(Cl)c2)n1: 104
CN1CCN(CCCOc2ccn(-c3ccc(Cl)c(Cl)c3)n2)CC1: 307
Cc1cc(OCCCCN2C[C@@H](C)O[C@@H](C)C2)nn1-c1ccc2ccccc2c1: 226
Clc1ccc(-n2ccc(OCCN3CCOCC3)n2)cc1Cl: 280
Cc1cc(OCCN2CCN(c3ccccc3)CC2)nn1-c1ccc(Cl)c(Cl)c1: 563

Name the recorded Ki for `Clc1ccc(-n2ccc(OCCN3CCCCC3)n2)cc1Cl` .
64.7

Item under review: `Cc1cc(OCCCCN2CCC(c3ccccc3)CC2)nn1-c1ccc(Cl)c(Cl)c1` . Reported Ki?
26.7

Quick check: Ki of `CN(CCCCOc1ccn(-c2ccc(Cl)c(Cl)c2)n1)Cc1ccccc1` ?
46.3

So what does the record say about Ki for `O=C(CCCN1CCC(O)(c2ccc(Cl)cc2)CC1)c1ccc(F)cc1` ?
22

Would you mind telling me what Ki value was observed for `Cc1cc(OCCCCN2CCN(C)CC2)nn1-c1ccc(Cl)c(Cl)c1` ?
102

Need Ki of `Clc1ccc(-n2ccc(OCCOCCN3CCCCC3)n2)cc1Cl` , thanks.
14.2

Ki lookup needed for `Cc1cc(OCCN2CCC(C)CC2)nn1-c1ccc(Cl)c(Cl)c1` , thanks.
161

Which value of Ki has been reported for `Cc1cc(OCCCN2CCOCC2)nn1-c1ccc(Cl)c(Cl)c1` in the records?
638

Please report the recorded Ki for `Clc1ccc(-n2ccc(OCCCN3CCOCC3)n2)cc1Cl` .
394

Consider the compound `COCCN(C)CCCCOc1ccn(-c2ccc(Cl)c(Cl)c2)n1` and give its measured Ki.
66.3
